Source listed as patent US4333942A.

System: thermal pain
Assay Summary: Tail flick test (analgesia)
Type: in vivo, female albino mice NMRI
Test Settings: Mus musculus; oral; dose which prolongs the reaction time by 50%; mice; read-out: Analgesic action, tail flick test ED50
ED50 listing for selected molecules.
Metric: ED50 (mg/kg)

> print(dat)
                               smiles.data  metric  recorded.number
1           CN1CCC(Oc2ccccc2)(c2ccccc2)CC1    ED50               35
2  CC(=O)Nc1ccc(OC2(c3ccccc3)CCN(C)CC2)cc1    ED50             12.5
3       CN1CCC(Cc2ccccc2)(Oc2ccc(N)cc2)CC1    ED50                2
4            c1ccc(OC2(c3ccccc3)CCNCC2)cc1    ED50               25
